Tested Target: T1, human soluble TREM2 (sTREM2) (human, UniProt Q9NZC2 19-157, limits assumed)
T1 construct: Native shed sTREM2; also called sTREM2 in Human CSF; sTREM2 in huTrem2 KI mouse plasma
T1 sequence: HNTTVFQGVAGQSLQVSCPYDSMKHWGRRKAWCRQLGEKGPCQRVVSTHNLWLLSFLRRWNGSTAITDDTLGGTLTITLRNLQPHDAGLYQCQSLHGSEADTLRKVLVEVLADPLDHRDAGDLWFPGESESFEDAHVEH
Protocol: MSD assay: sTREM2 captured from healthy human CSF, sulfo-tagged antibody titrated
Outcome Measure: pEC50
Convention used: pEC50 is expressed as -log10 of the molar concentration.

Binder: CL0020123-7 (antibody, V domains shown, Humanized variant of CL0020123 (hVH NGES/1 m, Vk graft); also called Clone CL0020123-7) VH: QVQLVQSGAEVKKPGASVKVSCKASGFSIEDFYIHWVRQAPGQGLEWMGWIDPENGESKYAPKFQGRVTITADTSTSTAYMELSSLRSEDTAVYYCHADHGNYGSTMDYWGQGTLVTVSS VL: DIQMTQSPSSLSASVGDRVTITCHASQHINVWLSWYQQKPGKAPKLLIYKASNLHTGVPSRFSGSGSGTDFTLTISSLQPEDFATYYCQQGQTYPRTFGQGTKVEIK
Outcome Measure: pEC50
Numeric Result: 9.27
--
Binder: CL0020188-4 (antibody, V domains shown, Humanized variant of CL0020188 (hVH NG/3 m, hVL TG/graft); also called Clone CL0020188-4) VH: EVQLVESGGGLVQPGGSLRLSCAGSGFTFTDFYMSWVRQAPGKGPEWLSVIRNKANGYTAGYNPSVKGRFTISRDNSKNTLYLQMNSLRAEDTAVYYCARLTYGFDYWGQGTLVTVSS VL: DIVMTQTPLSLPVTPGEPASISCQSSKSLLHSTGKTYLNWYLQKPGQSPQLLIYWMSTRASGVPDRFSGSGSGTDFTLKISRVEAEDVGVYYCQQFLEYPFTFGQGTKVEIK
Outcome Measure: pEC50
Numeric Result: 9.54
--
Binder: CL0020123-5 (antibody, V domains shown, Humanized variant of CL0020123 (hVH QGES/2 m, Vk graft); also called Clone CL0020123-5) VH: QVQLVQSGAEVKKPGASVKVSCKASGFSIEDFYIHWVRQAPGQGLEWMGWIDPEQGESKYAPKFQGRATITADTSTSTAYMELSSLRSEDTAVYYCHADHGNYGSTMDYWGQGTLVTVSS VL: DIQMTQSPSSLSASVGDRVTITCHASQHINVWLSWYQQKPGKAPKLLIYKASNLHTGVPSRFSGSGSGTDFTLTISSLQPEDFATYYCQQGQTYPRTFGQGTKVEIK
Outcome Measure: pEC50
Numeric Result: 9.00
--
Binder: CL0020188-7 (antibody, V domains shown, Humanized variant of CL0020188 (hVH NA/graft, hVL TG/graft); also called Clone CL0020188-7) VH: EVQLVESGGGLVQPGGSLRLSCAASGFTFTDFYMSWVRQAPGKGLEWVSVIRNKANAYTAGYNPSVKGRFTISRDNSKNTLYLQMNSLRAEDTAVYYCARLTYGFDYWGQGTLVTVSS VL: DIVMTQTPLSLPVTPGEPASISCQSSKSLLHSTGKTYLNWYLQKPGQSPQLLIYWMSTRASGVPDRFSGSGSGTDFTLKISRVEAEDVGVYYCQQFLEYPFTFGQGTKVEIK
Outcome Measure: pEC50
Numeric Result: 9.12
--
Binder: Reference antibody #3 (antibody, V domains shown) VH: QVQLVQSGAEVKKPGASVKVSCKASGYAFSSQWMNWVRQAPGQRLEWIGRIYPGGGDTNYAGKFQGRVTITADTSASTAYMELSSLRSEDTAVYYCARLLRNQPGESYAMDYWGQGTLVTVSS VL: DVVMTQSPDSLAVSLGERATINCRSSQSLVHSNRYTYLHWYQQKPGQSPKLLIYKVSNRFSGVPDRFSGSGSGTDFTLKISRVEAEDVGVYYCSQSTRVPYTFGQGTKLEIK
Outcome Measure: pEC50
Numeric Result: 8.14

Given item Reference antibody #2 (antibody, V domains shown) VH: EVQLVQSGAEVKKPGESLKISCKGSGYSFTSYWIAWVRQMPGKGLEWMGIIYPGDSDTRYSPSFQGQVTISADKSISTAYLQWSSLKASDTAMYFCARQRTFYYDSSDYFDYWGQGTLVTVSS VL: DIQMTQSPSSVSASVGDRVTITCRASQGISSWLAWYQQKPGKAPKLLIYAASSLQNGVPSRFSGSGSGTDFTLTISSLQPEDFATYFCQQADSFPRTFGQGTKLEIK , the value recorded as its pEC50 is 8.13

Recorded pEC50 (binder Reference antibody #1 (antibody, V domains shown) VH: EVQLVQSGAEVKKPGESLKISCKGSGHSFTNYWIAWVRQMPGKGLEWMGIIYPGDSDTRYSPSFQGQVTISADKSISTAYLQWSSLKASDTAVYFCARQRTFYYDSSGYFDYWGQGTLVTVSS VL: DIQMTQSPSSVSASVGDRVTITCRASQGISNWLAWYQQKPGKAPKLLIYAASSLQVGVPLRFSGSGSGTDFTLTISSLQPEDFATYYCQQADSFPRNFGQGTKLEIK ): 7.49
